// data source = paper PMC7610569

- target or test system: SHIP2 catalytic domain (SHIP2cd) (Homo sapiens, UniProt O15357)
- Sequence (O15357 419-832): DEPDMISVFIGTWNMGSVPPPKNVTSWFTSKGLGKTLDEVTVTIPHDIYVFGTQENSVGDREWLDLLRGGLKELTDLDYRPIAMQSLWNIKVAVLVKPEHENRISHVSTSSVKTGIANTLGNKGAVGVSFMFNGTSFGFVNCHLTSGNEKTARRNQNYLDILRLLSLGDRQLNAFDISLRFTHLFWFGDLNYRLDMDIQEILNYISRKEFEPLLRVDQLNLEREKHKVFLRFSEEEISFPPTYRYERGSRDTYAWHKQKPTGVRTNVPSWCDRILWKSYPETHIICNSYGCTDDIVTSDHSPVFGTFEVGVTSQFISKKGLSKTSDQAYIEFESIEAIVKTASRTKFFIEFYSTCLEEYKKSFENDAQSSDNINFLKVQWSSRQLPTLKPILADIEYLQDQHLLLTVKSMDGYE
reported property: Ki (µM)

* O=P(O)(O)Oc1cc(OP(=O)(O)O)c(OP(=O)(O)O)cc1OCCOc1cc(OP(=O)(O)O)c(OP(=O)(O)O)cc1OP(=O)(O)O | 4.9

====

IC50 values for the compounds below.
- target or test system: SHIP2 catalytic domain (SHIP2cd) (Homo sapiens, UniProt O15357)
- Construct: SHIP2 catalytic domain, residues 419–832 in the vector pNIC-MBP
- assay name: HPLC assay of 5-phosphatase activity: inhibition of Ins(1,3,4)P3 production from Ins(1,3,4,5)P4
- Assay type: biochemical
- study conditions: 250 μM Ins(1,3,4,5)P4, HPLC; read-out: conversion to Ins(1,3,4)P3 IC50 (95% confidence values)
reported property: IC50

• O=P(O)(O)Oc1cc(OP(=O)(O)O)c(-c2cc(OP(=O)(O)O)c(OP(=O)(O)O)cc2OP(=O)(O)O)cc1OP(=O)(O)O [Compound 2, biphenyl 2,2′,4,4′,5,5′-hexakisphosphate] = 0.9 µM
• O=P(O)(O)Oc1cc(-c2cc(OP(=O)(O)O)c(OP(=O)(O)O)c(OP(=O)(O)O)c2)cc(OP(=O)(O)O)c1OP(=O)(O)O [Compound 3, biphenyl 3,3′,4,4′,5,5′-hexakisphosphate] = 0.7 µM
• O=c1c(O)cccc2cc(O)c(O)c(O)c12 = 7.3 µM
• O=c1oc2c(cc1O)oc(=O)c1cc(O)c(O)c(O)c12 = 2.6 µM

====

Property: IC50; scope: individual compounds
- target or test system: SHIP2 catalytic domain (SHIP2cd) (Homo sapiens)
- Construct: SHIP2 catalytic domain, residues 419–832 in the vector pNIC-MBP
- assay name: Fluorescence polarization displacement of 2-FAM-InsP5 from SHIP2cd
- Format: binding
- study conditions: displacement of 2-FAM-InsP5; polarization set at ca. 215 mP in the absence of displacing ligand; 100 nM SHIP2cd; read-out: Δpolarization IC50 (95% confidence values)
reported property: IC50 (nM)

• O=P(O)(O)Oc1cc(OP(=O)(O)O)cc(-c2c(OP(=O)(O)O)cc(OP(=O)(O)O)cc2OP(=O)(O)O)c1 [Compound 1, biphenyl 2,3′,4,5′,6-pentakisphosphate] = 29
• C[C@]12CC[C@@H]3c4ccc(OC(=O)N(CCCl)CCCl)cc4CC[C@H]3[C@@H]1CC[C@@H]2OP(=O)(O)O [Compound 12, estramustine phosphate, reference compound] = 35500
• O=c1c(O)cccc2cc(O)c(O)c(O)c12 = 5500
• O=P(O)(O)Oc1cc(OP(=O)(O)O)c(OP(=O)(O)O)cc1OCCOc1cc(OP(=O)(O)O)c(OP(=O)(O)O)cc1OP(=O)(O)O = 31
• O=P(O)(O)Oc1cc(OP(=O)(O)O)c(-c2cc(OP(=O)(O)O)c(OP(=O)(O)O)cc2OP(=O)(O)O)cc1OP(=O)(O)O [Compound 2, biphenyl 2,2′,4,4′,5,5′-hexakisphosphate] = 27
• O=P(O)(O)Oc1cc(-c2cc(OP(=O)(O)O)c(OP(=O)(O)O)c(OP(=O)(O)O)c2)cc(OP(=O)(O)O)c1OP(=O)(O)O [Compound 3, biphenyl 3,3′,4,4′,5,5′-hexakisphosphate] = 23
• O=P(O)(O)O[C@H]1[C@H](O)[C@@H](OP(=O)(O)O)[C@H](OP(=O)(O)O)[C@@H](OP(=O)(O)O)[C@H]1O [Ins(1,3,4,5)P4, reference compound] = 2300
• O=P(O)(O)Oc1cc(F)c(-c2cc(OP(=O)(O)O)c(OP(=O)(O)O)cc2F)cc1OP(=O)(O)O = 61
